B1: SMTNL2 (parent)
chain: QKNFELAFTMAENLANCERLIEVE

Variants of: B1
Assay: protein stability index of a GFP-peptide fusion (GPS, HEK-293T) (PSI 1-6); higher = more stable;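 note: lentivirally expressed fusions sorted by FACS into six bins by GFP to DsRed ratio, PSI derived from sequencing read proportions per bin multiplied by bin number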
Study Conditions: c terminus: a fixed tail appended
Rule: protein stability index of 3 or more gives T; anything lower gives F.

INSERT INTO assay_data (mutant_designation, classification) VALUES
  ('A7W', 'F'),
  ('L14W', 'F'),
  ('N3R', 'F'),
  ('N16V', 'F'),
  ('T9Y', 'F'),
  ('I21C', 'T'),
  ('E12W', 'T'),
  ('N13P', 'T'),
  ('Q1K', 'F'),
  ('E24F', 'T');
